- Test system: TK-10 renal
- assay-info: NCI tumour cell line growth inhibition, 48 h
parameter-measured: TGI

Worked examples follow.
molecule | TGI
C[C@@H](Nc1cc(F)cc(F)c1)c1cc(C(=O)N(C)C)cc2c(=O)cc(N3CCOCC3)oc12 | > 100 µM
NS(=O)(=O)c1nnc(NS(=O)(=O)c2ccccc2[N+](=O)[O-])s1 | > 100 µM
Cc1cc(C)c(NS(=O)c2cccc(C(F)(F)F)c2)c(C)c1 (stereo not given) | > 100 µM
C[N+](C)(C)CC(=O)N/N=C(\Cc1nc2ccc([N+](=O)[O-])cc2[nH]c1=O)C(=O)Nc1nc2ccc([N+](=O)[O-])cc2s1 | > 100 µM
CCOC(=O)C1=C(C)NC(=O)NC1c1ccc(OC)cc1OC (stereo not given) | > 100 µM
CNC(=O)ON(C(C)=O)C(=O)NC | 70.6 µM
N#C/C(=C\c1cc(O)c(O)c(O)c1)C(N)=O | > 100 µM
O[C@@]1(C#Cc2ccc3c(c2)OCO3)CCC[C@H]1NCc1ccccc1 | 70.6 µM

Field: TGI. Fill in for each record below.
1. C=C1CN=C(Nc2ccc(Cl)cc2)S1
2. CC[C@H](C)[C@@H]([C@@H](CC(=O)N1CCC[C@H]1[C@H](OC)[C@@H](C)C(=O)NCCc1ccccc1)OC)N(C)C(=O)C(NC(=O)[C@H](C(C)C)N(C)C)C(C)C (stereo not given in full)
3. COc1ccc(-c2sc(Br)c3c2C(=O)C2OC(=O)NC32)cc1OC (stereo not given)

A.
> 100 µM
> 10 µM
> 100 µM

----------
- Tested on: M14 melanoma
- assay-info: NCI tumour cell line growth inhibition, 48 h
Note to self: values exactly at 10 µM are 1 (yes). So TGI at or above 10 µM is 1 (yes), below is 0 (no).

Some solved entries appear below for comparison.
compound | group-label
[N-]=[N+]=NC1C(O)C(CO)OC1n1ccc(N)nc1=O (centres undefined) | 1 (yes)
COc1cc(OCc2ccccc2)c2c(CCC(=O)O)cc(=O)oc2c1 (tested in a mixture with another compound) | 1 (yes)
CCN1CCN(c2nc(C)cc(NCc3cc(Nc4ccnc5cc(Cl)ccc45)ccc3F)n2)CC1 | 0 (no)
Cc1ccc(S(=O)(=O)OCOS(=O)(=O)c2ccc(C)cc2)cc1 | 1 (yes)
CC[C@@H](C)/C=C(C)/C=C/C(=O)c1c(O)c(-c2ccc(OC(=O)[C@@]34CC[C@@](C)(C(=O)O3)C4(C)C)cc2)cn(O)c1=O | 0 (no)

Q. Evaluate COC(=O)/C=C/CCC#Cc1ccccc1C#CCC/C=C/C(=O)OC : TGI at minimum 10 µM?
A. 1 (yes)

Q. Evaluate O=C(NC1CC1)c1c(O)[nH]c(=S)[nH]c1=O : TGI at minimum 10 µM?
A. 1 (yes)

Q. Evaluate Cc1ccc(C[As+](c2ccccc2)(c2ccccc2)c2ccccc2)cc1 : TGI at minimum 10 µM?
A. 1 (yes)

Q. Evaluate C=CCn1c2ccccc2c2c3c(c4c5ccccc5n(CC=C)c4c21)C(=O)N(O)C3=O : TGI at minimum 10 µM?
A. 1 (yes)

----------
- Tested on: HCT-116 colon
- assay-info: NCI tumour cell line growth inhibition, 48 h
Where a SMILES comes first, the peptide text is derived from it. [ ]: non-standard residue; d: D form. ΔPro = O=C(O)[CH]1C=CCN1
Assignment: determine reported TGI for the given molecules.

Field: TGI. Fill in for each record below.
1. O=C(Oc1ccccc1)N(c1ccccc1)c1ccccc1
2. CC(=O)Nc1cc(Cl)cc(Cl)c1O
3. C[P+]1(Cc2ccccc2)CCCC1
4. COc1cc(C(=O)/C=C/c2cc(-c3ccc4c(c3)OCO4)n[nH]2)cc(OC)c1OC
5. Cn1[nH]cc2ccc3nc4ccccc4c(=O)c3c21
6. CCOC(=O)C1=C(C)NC(=O)NC1c1ccc(OC)cc1OC (stereo not drawn)
7. O=C(O)C1C=CCN1C(=O)C1C=CCN1C(=O)C1C=CCN1 (stereo not drawn) (H-[ΔPro]-[ΔPro]-[ΔPro]-OH; configuration not given here)
8. CC(=O)NS(=O)(=O)c1ccc(NCc2cccc3c(=O)c4ccc(Cl)cc4oc23)cc1

A.
["76.8 µM", "> 100 µM", "> 100 µM", "4.63 µM", "> 100 µM", "> 100 µM", "> 100 µM", "> 100 µM"]

Field: TGI. Fill in for each record below.
1. COC(=O)C1=CC2C(=O)OC1C1C(=O)NC(=O)C21 (stereo not drawn)
2. N#C/C(=C\c1c(O)cc(O)cc1O)C(N)=O
3. O=C1C=C(c2ccccc2)OC1C1Sc2ccccc2NC1=O (stereo not drawn)
4. CC1(C)C(=O)OC(n2cc(F)c(=O)[nH]c2=O)C1=O (stereo not drawn)
5. Clc1cccc(-c2nc3cccc4c3n2Cc2ncccc2-4)c1
6. O=C(Nc1ccncc1)C(=O)c1cn(S(=O)(=O)c2cccc(Cl)c2)c2ccccc12

A.
1. > 100 µM
2. > 100 µM
3. 24.6 µM
4. > 100 µM
5. > 100 µM
6. 86.8 µM

Field: TGI. Fill in for each record below.
1. COc1ccc(OC)c(Nc2nc3nonc3nc2Nc2cccc(Br)c2)c1
2. CN1CCN(CCCNC(=O)c2c3c(n4ccccc24)C(=O)c2ncccc2C3=O)CC1
3. O=c1nc2sc3ccccc3c(=O)n2[nH]1
4. CNc1cc([N+](=O)[O-])ccc1C(=O)N1CCC[C@H]1CO

A.
1. > 100 µM
2. 4.93 µM
3. > 100 µM
4. > 100 µM

meta.source: PubChem BioAssay (NCI)
